- EXPERIMENTAL SYSTEM: Amylin 3(a) receptor (human calcitonin receptor (CTa) with RAMP-3) on BHK570 cells (human, UniProt P30988 25-474)
- Sequence (P30988 25-474): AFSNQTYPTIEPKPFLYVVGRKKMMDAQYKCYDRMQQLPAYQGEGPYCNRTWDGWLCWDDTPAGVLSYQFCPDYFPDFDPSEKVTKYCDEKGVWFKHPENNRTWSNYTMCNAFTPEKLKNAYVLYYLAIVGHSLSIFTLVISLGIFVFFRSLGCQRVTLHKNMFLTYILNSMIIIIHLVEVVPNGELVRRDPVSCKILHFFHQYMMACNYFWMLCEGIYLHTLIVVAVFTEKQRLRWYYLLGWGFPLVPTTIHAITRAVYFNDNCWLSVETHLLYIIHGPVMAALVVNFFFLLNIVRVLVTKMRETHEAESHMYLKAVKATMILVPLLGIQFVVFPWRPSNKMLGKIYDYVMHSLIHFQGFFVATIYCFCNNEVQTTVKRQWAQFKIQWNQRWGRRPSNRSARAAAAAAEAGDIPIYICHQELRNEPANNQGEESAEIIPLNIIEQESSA
- METHOD: cell-based or functional assay
Starred links: 1 amine or outer side, 2 acyl side, 3 side chain; linkers in the order of their positions; H or OH if unused. Positions of bridges follow the written chain, without caps; N, C: chain ends. Non-standard residues stand in square brackets, D forms with d. Groups on a side chain read outwards from the residue. No end group written: not given here. *: point of attachment. C20 diacid = O=C(O)CCCCCCCCCCCCCCCCCCC(=O)*; C18 diacid = O=C(O)CCCCCCCCCCCCCCCCC(=O)*; γGlu = O=C(O)[C@H](CCC(=O)[*:2])N[*:1]; AEEA = NCCOCCOCC(=O)O
Below, each of the binders is paired with its reported Potency luciferase assay value.
MEASUREMENT NAME: Potency luciferase assay (pM)

>>> quantitative_result("{C20 diacid}-E[AEEA]ECQTATCATQRLANFLVRSSQNLGPVLPPTNVGSNTY-NH2 (disulfide 4-9 (inferred))")
400
>>> quantitative_result("KCK([γGlu-C18 diacid])TATCATQRLANFLVRSSQNLGPVLPPTNVGSNTY-NH2 (disulfide 2-7 (inferred))")
40
>>> quantitative_result("EERECNTATCATQRLANFLVHSSNNFGPILPPTNVGSNTY-NH2 (disulfide 5-10 (inferred); not fully specified (N-terminus)) [N-alpha-[4-(16-1H-tetrazol-5-yl-hexadecanoylsulfamoyl)-butyryl]-Glu-Glu-Arg-[Glu1]pramlintide (1-37)]")
90
>>> quantitative_result("{C20 diacid-γGlu}-RRCNTATCATQRLANFLVHSSNNFGPILPPTNVGSNTY-NH2 (disulfide 3-8 (inferred)) [N-alpha-[(S)-4-carboxy-4-(19-carboxynonadecanoylamino)butyryl]-Arg-[Arg1]-pramlintide (1-37)]")
100
>>> quantitative_result("{C20 diacid-γGlu}-CNTATCATQRLANFLVHSSNNFGPILPPTNVGSNTY-NH2 (disulfide 1-6 (inferred)) [N-alpha-[(S)-4-carboxy-4-(19-carboxynonadecanoylamino)butyryl]-pramlintide (2-37)]")
100
>>> quantitative_result("{C20 diacid-γGlu}-KKCNTATCATQRLANFLVHSSNNFGPILPPTNVGSNTY-NH2 (disulfide 3-8 (inferred)) [N-alpha-[(S)-4-carboxy-4-(19-carboxynonadecanoylamino)butyryl]-Lys-pramlintide (1-37)]")
100
>>> quantitative_result("KCNTATCATQRLANFLVHSSNNFGK([AEEA-AEEA-γGlu-γGlu-γGlu-γGlu-C18 diacid])ILPPTNVGSNTY-NH2 (disulfide 2-7 (inferred))")
300
>>> quantitative_result("{C20 diacid}-EKRCNTATCATQRLANFLVHSSNNFGPILPPTNVGSNTY-NH2 (disulfide 4-9 (inferred)) [N-alpha-(19-carboxynonadecanoyl)-Glu-Lys-[Arg1]-pramlintide (1-37)]")
70
>>> quantitative_result("KCK([AEEA-AEEA-γGlu-γGlu-γGlu-C18 diacid])TATCATQRLANFLVPSSNNFGPILPPTNVGSNTY-NH2 (disulfide 2-7 (inferred))")
20000
